Recorded values, source ChEMBL document CHEMBL1142419.

Test system: Mus musculus
Experiment: Phototoxicity in Swiss albino mouse assessed as erythema incidence at 140 mg/kg, po after 24 hrs of irradiation
Assay type: organism-based
Design: dose 140 mg/kg, route oral
Assay context: in vivo
Property: Activity

INSERT INTO measurements (molecule, assay_result) VALUES
  ('CCn1cc(C(=O)O)c(=O)c2cc(F)c(N3CCNC(C)C3)c(F)c21 (centres undefined) [LOMEFLOXACIN]', 'Toxic'),
  ('CCN(CC)C(=O)C1CCCN(c2cc3c(cc2F)c(=O)c(C(=O)O)c2sc4ccccc4n23)C1 (centres undefined)', 'Non-toxic'),
  ('O=C(O)c1c(=O)c2cc(F)c(N3CCC4(CC3)OCCO4)cc2n2c1sc1ccccc12', 'Non-toxic'),
  ('O=C(O)c1c(=O)c2cc(F)c(N3CCC(O)(c4ccc(Cl)cc4)CC3)cc2n2c1sc1ccccc12', 'Non-toxic');

---

Consider the following compounds; for each one, report its Activity.
Tested on: Mus musculus
Experiment: Phototoxicity in Swiss albino mouse assessed as ear thickness at 140 mg/kg, po after 4 hrs of irradiation
Assay type: organism-based
Set-up: dose 140 mg/kg, route oral
Assay context: in vivo
Value expressed in mm; do not type the unit.

Prompt: Note down Activity recorded for O=C(O)c1c(=O)c2cc(F)c(N3CCC4(CC3)OCCO4)cc2n2c1sc1ccccc12
Response: 0.3

Prompt: Fill in reported Activity for this entry: CCN(CC)C(=O)C1CCCN(c2cc3c(cc2F)c(=O)c(C(=O)O)c2sc4ccccc4n23)C1 (centres undefined)
Response: 0.29

Prompt: Retrieve Activity measured for O=C(O)c1c(=O)c2cc(F)c(N3CCC(O)(c4ccc(Cl)cc4)CC3)cc2n2c1sc1ccccc12 and print it.
Response: 0.32

Prompt: Answer with reported Activity of CCn1cc(C(=O)O)c(=O)c2cc(F)c(N3CCNC(C)C3)c(F)c21 (centres undefined)
Response: 0.4

---

I'd appreciate it if you could supply Activity values for the items below.
Test system: Mus musculus
Experiment: Phototoxicity in Swiss albino mouse assessed as ear thickness at 140 mg/kg, po after 72 hrs of irradiation
Assay type: organism-based
Set-up: dose 140 mg/kg, route oral
Assay context: in vivo

Prompt: Tell me measured Activity for CCn1cc(C(=O)O)c(=O)c2cc(F)c(N3CCNC(C)C3)c(F)c21 (centres undefined) please.
Response: 0.64 mm

Prompt: Supply reported Activity belonging to this compound: O=C(O)c1c(=O)c2cc(F)c(N3CCC(O)(c4ccc(Cl)cc4)CC3)cc2n2c1sc1ccccc12
Response: 0.32 mm

Prompt: Specify measured Activity for O=C(O)c1c(=O)c2cc(F)c(N3CCC4(CC3)OCCO4)cc2n2c1sc1ccccc12 .
Response: 0.28 mm

Prompt: Fill in reported Activity for this entry: CCN(CC)C(=O)C1CCCN(c2cc3c(cc2F)c(=O)c(C(=O)O)c2sc4ccccc4n23)C1 (centres undefined)
Response: 0.3 mm

---

Experiment: Inhibition of Mycobacterium smegmatis DNA gyrase supercoiling activity
Design: species or system Mycolicibacterium smegmatis
Property: IC50 (µg/mL)
Record the value in µg/mL, omitting the unit from your answer.

Prompt: Give reported IC50 value for CCN(CC)C(=O)C1CCCN(c2cc3c(cc2F)c(=O)c(C(=O)O)c2sc4ccccc4n23)C1 (stereo not given)
Response: 40

Prompt: Return IC50 for the following compound: O=C(O)c1c(=O)c2cc(F)c(N3CCC(O)(c4ccc(Cl)cc4)CC3)cc2n2c1sc1ccccc12
Response: 40

Prompt: For the compound CC(C)(C)OC(=O)NC1C2CN(c3cc4c(cc3F)c(=O)c(C(=O)O)c3sc5ccccc5n34)CC21 (stereo not given) , report IC50.
Response: 50
